Cited source: the Human Domainome abundance scans (Beltran et al. 2025)

B1: Steroid hormone receptor ERR2, residues 100 to 176; numbered along this chain, O95718 (parent)
chain: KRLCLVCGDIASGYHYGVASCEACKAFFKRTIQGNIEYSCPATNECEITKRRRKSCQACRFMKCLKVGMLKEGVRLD

Variants of: B1
Test: abundance fitness (aPCA) (normalised: wild type 0, dead -1); higher = more abundant; growth selection in yeast, the domain comes from the species named
Conditions: Homo sapiens
Just so you know, the groups by abundance fitness go like this: group 1 (below -0.6), group 2 (-0.6 to below -0.2), group 3 (-0.2 or more)

>>> label_class("KRLPLVCGDIASGYHYGVASCEACKAFFKRTIQGNIEYSCPATNECEITKRRRKSCQACRFMKCLKVGMLKEGVRLD [C4P]")
"group 1"
>>> label_class("KRLCLVCGDIASGYHYGVASCEACKAFFKRTIQGNIEYSCPATNECEITKRRRKSEQACRFMKCLKVGMLKEGVRLD [C56E]")
"group 1"
>>> label_class("KRLCLVCGDIASGYHYGVASCEACKAFFKRTIQGNIEYSCPATNECEITKRRRKSAQACRFMKCLKVGMLKEGVRLD [C56A]")
"group 1"
>>> label_class("KRLCLVCFDIASGYHYGVASCEACKAFFKRTIQGNIEYSCPATNECEITKRRRKSCQACRFMKCLKVGMLKEGVRLD [G8F]")
"group 2"
>>> label_class("KRLCLVCGDIASGYHYGVASCEACKAFFKRTIQGNIEYSCFATNECEITKRRRKSCQACRFMKCLKVGMLKEGVRLD [P41F]")
"group 2"
>>> label_class("KRLCLVCGDIASGYHYGVASCEACKAFFKRTIQGNIEYSCQATNECEITKRRRKSCQACRFMKCLKVGMLKEGVRLD [P41Q]")
"group 3"
>>> label_class("KRLCPVCGDIASGYHYGVASCEACKAFFKRTIQGNIEYSCPATNECEITKRRRKSCQACRFMKCLKVGMLKEGVRLD [L5P]")
"group 2"
>>> label_class("KRLCLVCGDIASGYHYGVASCEACKAFFKRTIQANIEYSCPATNECEITKRRRKSCQACRFMKCLKVGMLKEGVRLD [G34A]")
"group 3"
>>> label_class("KRLCLVCGDIASGYHYGVASCEACKAFFKRTIQGNIEYSCPATNECEITKRRSKSCQACRFMKCLKVGMLKEGVRLD [R53S]")
"group 3"
>>> label_class("KRLCLVVGDIASGYHYGVASCEACKAFFKRTIQGNIEYSCPATNECEITKRRRKSCQACRFMKCLKVGMLKEGVRLD [C7V]")
"group 1"
>>> label_class("KRPCLVCGDIASGYHYGVASCEACKAFFKRTIQGNIEYSCPATNECEITKRRRKSCQACRFMKCLKVGMLKEGVRLD [L3P]")
"group 2"
